Values were extracted from patent US20240247080A1.

TESTED TARGET: T1, NPY2 receptor (human (printed as hNPY2R), UniProt P49146 1-381)
T1 sequence (looked up): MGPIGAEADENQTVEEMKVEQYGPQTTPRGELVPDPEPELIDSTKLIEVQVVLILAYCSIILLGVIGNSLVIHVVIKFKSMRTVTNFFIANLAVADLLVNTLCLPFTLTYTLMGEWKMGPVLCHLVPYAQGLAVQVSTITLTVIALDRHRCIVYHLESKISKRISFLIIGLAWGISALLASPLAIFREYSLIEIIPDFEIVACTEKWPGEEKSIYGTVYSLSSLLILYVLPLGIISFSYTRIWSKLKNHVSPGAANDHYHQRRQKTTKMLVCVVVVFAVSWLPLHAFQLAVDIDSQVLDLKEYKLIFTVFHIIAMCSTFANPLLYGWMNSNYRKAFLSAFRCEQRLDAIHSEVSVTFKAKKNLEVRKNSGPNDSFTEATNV
METHOD: cell-based or functional assay
Starred links: 1 amine or outer side, 2 acyl side, 3 side chain; linkers in the order of their positions; H or OH if unused. Non-standard residues stand in square brackets, D forms with d. Groups on a side chain read outwards from the residue. No end group written: not given here. *: point of attachment. C20 diacid = O=C(O)CCCCCCCCCCCCCCCCCCC(=O)*; γGlu = O=C(O)[C@H](CCC(=O)[*:2])N[*:1]; εLys = N[C@@H](CCCCN[*:1])C(=O)[*:2]; AEEA = NCCOCCOCC(=O)O; Aib = CC(C)(N)C(=O)O
Parameter EC50 hNPY2R 0.5% hP (CreLuc): see the listing below.
PROPERTY LABEL: EC50 hNPY2R 0.5% hP (CreLuc) (nM)

# BINDER, PROPERTY LABEL, U, DATA VALUE
records = [
    ("YXEGTFTSDYSIXLEKQAQXAFVEWLIKGGPSSGASLRHYYNLLTRQRY (Aib at 2, 13, 20; K28 side chain carries C20DA-gGlu-gGlu-gGlu-gGlu-gGlu-gGlu-eLys; C-terminal amide) [Compound 195]", "EC50 hNPY2R 0.5% hP (CreLuc)", "nM", 26.1),
    ("Y[Aib]EGTFTSDYSI[Aib]LEKQAQ[Aib]AFVEWLIKGGPSSYASLRHYYNWLTRQRY-NH2 (not fully specified (residue 28); also: TFA salt) [Compound 183]", "EC50 hNPY2R 0.5% hP (CreLuc)", "nM", 9.34),
    ("Y[Aib]EGTFTSDYSI[Aib]LEKQAQ[Aib]EFVQWLIK([γGlu-γGlu-γGlu-γGlu-γGlu-γGlu-C20 diacid])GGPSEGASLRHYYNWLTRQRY-NH2 (also: TFA salt) [Compound 185]", "EC50 hNPY2R 0.5% hP (CreLuc)", "nM", 13.3),
    ("YXEGTFTSDYSIXLEKQAQXAFVEWLIKGGPSSGASLLHYYNWLTRQRY (Aib at 2, 13, 20; K28 side chain carries C20DA-gGlu-gGlu-gGlu-gGlu-gGlu-gGlu-eLys; C-terminal amide) [Compound 210]", "EC50 hNPY2R 0.5% hP (CreLuc)", "nM", 54.1),
    ("YXEGTFTSDYSIXLEKQAQXEFVQWLIKGGPSEGASLRHYYNWLTRQRY (Aib at 2, 13, 20; K28 side chain carries C18DA-E-E-E-E-E (SEQ ID NO: 636); C-terminal amide) [Compound 176]", "EC50 hNPY2R 0.5% hP (CreLuc)", "nM", 30.4),
    ("Y[Aib]EGTFTSDYSI[Aib]LEKQAQ[Aib]EFVQWLIK([γGlu-γGlu-γGlu-γGlu-C20 diacid])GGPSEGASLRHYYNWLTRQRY-NH2 (also: TFA salt) [Compound 194]", "EC50 hNPY2R 0.5% hP (CreLuc)", "nM", 13.8),
    ("Y[Aib]EGTFTSDYSI[Aib]LEKQAQ[Aib]AFIEWLIK([AEEA-AEEA-γGlu-γGlu-γGlu-γGlu-C20 diacid])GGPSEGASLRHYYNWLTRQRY-NH2 (also: TFA salt) [Compound 231]", "EC50 hNPY2R 0.5% hP (CreLuc)", "nM", 19.2),
    ("Y[Aib]EGTFTSDYSI[Aib]LEKQAQ[Aib]AFVEWLIK([εLys-γGlu-γGlu-γGlu-γGlu-γGlu-γGlu-γGlu-C20 diacid])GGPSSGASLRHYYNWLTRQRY-NH2 (also: TFA salt) [Compound 225]", "EC50 hNPY2R 0.5% hP (CreLuc)", "nM", 14.9),
    ("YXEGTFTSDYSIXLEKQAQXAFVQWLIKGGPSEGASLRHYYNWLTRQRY (Aib at 2, 13, 20; K28 side chain carries C20DA-gGlu-gGlu-gGlu-gGlu-gGlu-gGlu-eLys; C-terminal amide) [Compound 220]", "EC50 hNPY2R 0.5% hP (CreLuc)", "nM", 10.2),
]
